Reference for the values: PubChem BioAssay AID463173

# Tested on: DeltatarO mutant
# Assay text: S. aureus survival, RN4220 and DeltatarO strains – OD600, teichoic acid synthesis inhibitors, primary screen (AID 463173)
# Condition summary: S. aureus RN4220 wild type/DeltatarO growth, OD600, 18 h, hits give low values, screened at 18.75 µg/mL (by protocol)
Out of some 52,000 compounds screened, about 4,300 (8.3%) were called active. The full list was thinned out, with actives kept by preference.
Quantity name: survival (%)

• CCOC(=O)c1[nH]c(C)c(C(=O)NCc2ccc(F)cc2)c1C = 79
• NNC(=O)CNC(=O)c1cccs1 = 79
• Cc1ccc(CNC(=O)c2ccc(N3Cc4ccccc4Oc4ncccc43)s2)cc1 = 81
• Cc1cccc(C(=O)NCCc2nc3ccccc3n2Cc2ccc(Cl)cc2)c1 = 79
• O=C(O)CCC(=O)NCc1ccccn1 = 82

* * *

# System: DeltatarO mutant
# Assay text: S. aureus survival, RN4220 and DeltatarO strains – OD600, teichoic acid synthesis inhibitors, primary screen (AID 463173)
# Condition summary: S. aureus RN4220 wild type/DeltatarO growth, OD600, 18 h, screened at 18.75 µg/mL (by protocol)
About 4,300 (8.3%) of roughly 52,000 compounds were called active. Rule as the data show it: active = survival mostly below about 52% (no sharp cut-off); inactive = mostly above about 56%. Only a selection was taken, and actives are over-represented in it overall.
Classes used: active, inactive

• CC(CCc1ccccc1)NC(=O)Cn1ncc2c3ccccc3n(Cc3ccccc3)c2c1=O (stereo unspecified) = inactive
• COc1ccccc1CNC(=O)CCS(=O)(=O)c1ccc2c(c1)CC(C)N2C(=O)C1CC1 (stereo unspecified) = active
• N#CC1=C(N)c2ccccc2CC12CCCCC2 = active
• O=S(=O)(c1ccc(Cl)cc1)c1nc(-c2ccccc2)oc1N1CCN(c2ccccc2)CC1 = inactive
• Clc1ccc2nc(NCc3ccccc3)c3nncn3c2c1 = inactive
• CC(C)(C)c1ccc(C(=O)N2CCC(C(=O)O)CC2)cc1 = inactive
• Cc1ccc(CNC(=O)c2cc3c(s2)-c2c(C)cccc2OC3)cc1 = inactive
• CC(C)(C)OC(=O)N1CCC(c2nnc(SCc3ccccc3)o2)CC1 = inactive
• CCN(C(=O)c1cc2c(s1)-c1c(C)cccc1OC2)c1ccccc1F = inactive
• CCC(=O)N1c2ccc(S(=O)(=O)CCC(=O)NCc3cccc(OC)c3)cc2CC1C (stereo unspecified) = inactive
• Cc1ccc(CCNC(=O)c2cc3c(s2)-c2c(C)cccc2OC3)cc1 = inactive
• CCOc1ccc(-n2c(SC(C)C(=O)OC)nc3c([nH]c4ccccc43)c2=O)cc1 (stereo unspecified) = active
• Cc1ccc(-n2c(SCC(=O)N3CCC(C)CC3)nc3c([nH]c4ccccc43)c2=O)cc1 = active
• CCCCSC1=NC(C)(C)CC(C)O1 (stereo unspecified) = inactive
• CCc1ccc(CNC(=O)c2c(C)oc3ncn(CC(C)C)c(=O)c23)cc1 = inactive
• CC(C)NC(=O)C1CCN(C(=O)N2CC(C)Oc3ccccc32)CC1 (stereo unspecified) = inactive
• COc1ccc(-n2c(SCC(=O)N3CCC(C)CC3)nc3c([nH]c4ccccc43)c2=O)cc1 = inactive
• CCOC(=O)CSc1nc2c([nH]c3ccccc32)c(=O)n1-c1ccc(OCC)cc1 = inactive
• Cc1ccc2oc(C(=O)N3CCC(c4nc5ccccc5s4)CC3)c(C)c2c1 = inactive
• CCN(Cc1ccccc1)C(=O)c1cc2c(s1)-c1c(C)cccc1OC2 = active
• CCOc1ccc(-n2c(SCC(=O)N3CCOCC3)nc3c([nH]c4ccccc43)c2=O)cc1 = active
• COc1cc(OC)cc(-c2nc3nc(C)c(CCC(=O)Nc4ccc(Cl)cc4)c(C)n3n2)c1 = inactive
• Cc1cc(C)cc(-n2c(SCC(=O)N3CCC(C)CC3)nc3c([nH]c4ccccc43)c2=O)c1 = active
• CC1Cc2cc(S(=O)(=O)CCC(=O)NCc3ccccc3Cl)ccc2N1C(=O)C1CC1 (stereo unspecified) = inactive
• COc1ccc(C(=O)Nc2ccc(NC(=O)c3ccco3)cc2)cc1OC = inactive
• Cc1cc(C)c2c(=O)cc(C(=O)NCc3ccc(S(N)(=O)=O)cc3)oc2c1 = inactive
• CCOc1ccc(-n2c(SCC(=O)N3CCCC3)nc3c([nH]c4ccccc43)c2=O)cc1 = inactive
• CCN(C(=O)c1cn(-c2ccc(OC)cc2)c(=O)c2ccccc12)c1cccc(Cl)c1 = inactive
• O=C(NCc1ccccc1)c1ccc2c(c1)N(Cc1ccccc1F)C(=O)c1ccccc1S2=O (stereo unspecified) = inactive
• Cc1cccc(CCNC(=O)c2cc3c(s2)-c2c(C)cccc2OC3)c1 = inactive
• Cc1ccc(Cn2c(C(=O)NCc3ccccc3Cl)cc3sccc32)cc1 = inactive
